System: NCI-H522 lung
Test: NCI-60 one-dose screen, 48 h
Conditions: 10 µM unless noted
Procedure: Growth inhibition of the NCI-H522 human Non-Small Cell Lung tumor cell line is measured as a screen for anti-cancer activity. Cells are grown in 96 well plates and exposed to the test compound for 48 hours. Compounds are tested at a single concentration, which is 10^-5 M for most compounds. The reported endpoint is percent growth (GI% or GIPRCNT), where numbers from 0 - 100% represent growth inhibition, and numbers from -100% - 0 represent cell death. […]
About 83,000 compounds went through this panel and 20% of them were active in at least one assay; those are over-represented in the sample as a whole. The source made the active and inactive calls. The calls were made as follows: active = growth percent below 10; inactive = the rest.
Give one outcome, nothing more. List: active, inactive

These solved cases illustrate the format of a correct answer.
• CC(=O)OCC1OC(OC2C(COC(C)=O)OC(n3cc(COc4ccc5ccc(=O)oc5c4)nn3)C(OC(C)=O)C2OC(C)=O)C(OC(C)=O)C(OC(C)=O)C1OC(C)=O (stereo unspecified) = inactive
• Cc1ccccc1[C@H]1C(C(=O)c2ccc(Cl)cc2)C2(N[C@@H]1c1ccccc1)C(=O)Nc1ccc(Cl)cc12 (stereo partly specified) = active
• CCCCCCCCc1ccc(C(=O)Nc2ccc(C)cc2C(=O)O)cc1C = active
• COc1ccc(C2(SCCNCc3cc(N(C)C)ccn3)c3ccccc3C=Cc3ccccc32)cc1 = active
• C=C1CC[C@@H]2[C@]3(C)COC(c4cn(-c5ccccc5)nc4-c4ccccc4)O[C@@H]3CC[C@@]2(C)[C@@H]1C/C=C1/C(=O)OC[C@H]1O (stereo partly specified) = active
• CNS(=O)(=O)c1ccc(Nc2ccc(C(F)(F)F)cc2)c(-c2cn(C)cn2)c1 = inactive

q: Hello, I am checking results. What call was entered for O=C(CN1C(=O)/C(=C/c2ccccc2Cl)SC1=S)N1CCOCC1 ?
a: active

q: Hello, I am checking results. What call was entered for Cc1ccc(NC(=O)CN2CCN(c3ncnc4c3cnn4-c3ccccc3)CC2)cc1 ?
a: active

q: Hello, I am checking results. What call was entered for O=C(NNc1nc2cc(F)ccc2n2c(CN3CC4CNCC4C3)ccc12)c1ccncn1 (stereo unspecified) ?
a: inactive

q: Hello, I am checking results. What call was entered for O=c1c2ccccc2nc(-c2ccccc2)n1/N=C/c1ccc2ccccc2c1 ?
a: inactive

q: Hello, I am checking results. What call was entered for NS(=O)(=O)c1ccc(-n2cc(-c3cccc(NC(=O)c4cc(N5CCOCC5)cc(C(F)(F)F)c4)c3)nn2)cc1 ?
a: inactive

q: Hello, I am checking results. What call was entered for Cc1ccc2c(c1)nc(-c1ccccc1)n2CC(=O)N=Nc1c(O)[nH]c2ccc(Br)cc12 ?
a: active

q: Hello, I am checking results. What call was entered for COc1ccc(-c2ccnc(SCc3cc4cc(OC)ccc4[nH]c3=O)n2)cc1 ?
a: inactive

q: Hello, I am checking results. What call was entered for C=C1CCC2C3(C)COC(c4cccs4)OC3CCC2(C)C1CC(Sc1ccccc1)C1=CCOC1=O (stereo unspecified) ?
a: inactive

q: Hello, I am checking results. What call was entered for O=C(O)c1ccc(-c2ccc(/C=N/NC(=O)c3[nH]c4ccc(Br)cc4c3-c3ccccc3)s2)cc1 ?
a: active

q: Hello, I am checking results. What call was entered for COc1ccc(NC(=O)Nc2ccc(OCc3ccc(F)cc3)cc2)cc1 ?
a: inactive

q: Hello, I am checking results. What call was entered for CC1(C)CC[C@]2(C(=O)O)CC[C@]3(C)C(=CCC4[C@@]5(C)C[C@@H](O)[C@@H]6OC(c7cccc(Br)c7)OC[C@@]6(C)C5CC[C@]43C)C2C1 (stereo partly specified) ?
a: inactive

q: Hello, I am checking results. What call was entered for CSc1ccc(C(=O)Nc2ccc3nnn(/C(C#N)=C/c4ccccn4)c3c2)cc1 ?
a: active
